Listing of recorded phosphorylation enrichment by entry.
test.target: Hck (UniProt P08631)
Sequence (P08631 whole entry, looked up): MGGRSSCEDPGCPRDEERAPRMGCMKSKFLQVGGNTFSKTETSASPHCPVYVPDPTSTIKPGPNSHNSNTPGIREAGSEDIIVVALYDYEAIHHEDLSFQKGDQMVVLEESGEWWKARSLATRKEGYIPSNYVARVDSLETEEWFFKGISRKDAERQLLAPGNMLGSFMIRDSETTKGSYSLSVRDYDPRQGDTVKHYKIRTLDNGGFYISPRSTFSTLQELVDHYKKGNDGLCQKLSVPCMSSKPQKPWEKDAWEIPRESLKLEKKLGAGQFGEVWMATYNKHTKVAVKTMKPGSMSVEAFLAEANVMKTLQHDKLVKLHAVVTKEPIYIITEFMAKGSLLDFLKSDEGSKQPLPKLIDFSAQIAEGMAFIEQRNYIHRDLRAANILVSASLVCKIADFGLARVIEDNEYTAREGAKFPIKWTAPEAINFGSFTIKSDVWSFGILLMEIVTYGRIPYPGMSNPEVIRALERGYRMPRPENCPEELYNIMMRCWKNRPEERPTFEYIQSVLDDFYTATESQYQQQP
experiment.description: phosphorylation enrichment, bacterial display (enrichment ratio); higher = better substrate or ligand; peptides without Tyr show the background;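 further: 11-residue human phosphosite peptides and single-mutation variants displayed on the E. coli surface, counted by deep sequencing, each peptide's frequency after selection divided by its frequency in the unselected input library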;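 further: frequency after pTyr selection over input frequency; kinase dosed for 20-30% of maximal phosphorylation in three min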

Q. Report phosphorylation enrichment, nothing else, for this sequence: FARECYSALPQ [SARS2_Y52_G51C_YF]
A. 2.93

Q. Report phosphorylation enrichment, nothing else, for this sequence: PGVNYYFRVSA
A. 0.469

Q. Report phosphorylation enrichment, nothing else, for this sequence: SYTDPYAQPPL [KMT2D_Y2378]
A. 0.473

Q. Report phosphorylation enrichment, nothing else, for this sequence: GGEAIYAAPFA [Abl_opt_1995]
A. 12.7

Q. Report phosphorylation enrichment, nothing else, for this sequence: TLQRMYGCDVG [HLA-B_Y123_S121R]
A. 0.501

Q. Report phosphorylation enrichment, nothing else, for this sequence: SNFRAYATEPQ [TNNI3_Y29_H34Q_YF]
A. 0.518

More entries:
Q. Report phosphorylation enrichment, nothing else, for this sequence: EQKKNYNAMKK [SCN5A_Y1495_Y1494N]
A. 0.489

Q. Report phosphorylation enrichment, nothing else, for this sequence: LQKNIYSEELR [LMNA_Y211_F206L]
A. 1.49

Origin of values: the supplement of paper PMC10065799
